Please go through the items and note down their GI50.
# Tested on: M14
# Test Details: NCI tumour cell line growth inhibition, 48 h
Activity calls are given as the source filed them. Cut-off read from the data, not from the text of the source: active = GI50 up to about 1.1 µM and inactive = higher.

- Compound: "O=C1C2CCCC2N1Cc1ccccc1 (stereo not given)"
  Experimental Target: "M14"
  GI50: "13.6 µM (inactive)"
- Compound: "C/C(=C\\CC/C=C(\\C)CC/C=C(\\C)CCC1SC1(C)C)CC/C=C(\\C)CCC1OC1(C)C (stereo not given)"
  Experimental Target: "M14"
  GI50: "> 100 µM (inactive)"
- Compound: "O=C1Nc2ccccc2/C1=N/NC(=S)NCc1ccccn1"
  Experimental Target: "M14"
  GI50: "0.312 µM (active)"
- Compound: "CC1(CCc2ccccc2)CC1(Br)Br (stereo not given)"
  Experimental Target: "M14"
  GI50: "44.8 µM (inactive)"
- Compound: "O=C(NN1C(=O)C(Cl)C1c1cccc([N+](=O)[O-])c1)c1ccccc1O (stereo not given)"
  Experimental Target: "M14"
  GI50: "> 100 µM (inactive)"
- Compound: "c1ccc(CNCCN2CCNCC2)nc1"
  Experimental Target: "M14"
  GI50: "> 100 µM (inactive)"
- Compound: "Cc1c2[nH]c3ccc(Br)cc3c2c(C)c2nccc(O)c12"
  Experimental Target: "M14"
  GI50: "12.8 µM (inactive)"
- Compound: "CC(C)C1CC2C(=O)N(c3ccccc3)C(=O)C2c2[nH]c3ccccc3c21 (stereo not given)"
  Experimental Target: "M14"
  GI50: "38.5 µM (inactive)"

Quick batch: GI50 for everything below.
1. CCCCCCNC(=O)CCC(NC(=O)c1ccc(N(C)Cc2cnc3nc(N)nc(N)c3n2)cc1)C(=O)NCCCCCC (stereo not given)
2. CCOC(=O)Nc1ccc(S(=O)(=O)I)cc1.CCOC(=O)Nc1ccc(S(=O)(=O)I)cc1.CNC(=O)N=O.NC(=O)OCCCl
3. Nc1nc(SCC(=O)c2ccc(Br)cc2)c2nc[nH]c2n1
4. C[N+](C)(C)C(Cc1c[nH]c(=S)[nH]1)C(=O)O (stereo not given)
5. CC(C)(C)c1cc2c(O)c(c1)COCc1cc(C(C)(C)C)cc(c1O)COCc1cc(C(C)(C)C)cc(c1O)COC2
6. O=C1C(Cl)C(c2cccc(Br)c2)N1c1c(O)c(Cl)cc(Br)c1Cl (stereo not given)

Resp:
1. 73.8 µM (inactive)
2. > 100 µM (inactive)
3. 40.5 µM (inactive)
4. > 100 µM (inactive)
5. 88.5 µM (inactive)
6. 13.9 µM (inactive)

Quick batch: GI50 for everything below.
1. COc1c(Br)cc(Br)c(OC)c1-c1ccc[nH]1
2. O=C1/C(=C/c2ccc(OC(=O)c3ccccc3)cc2)CCC/C1=C\c1ccc(OC(=O)c2ccccc2)cc1
3. O=C(c1ccccc1)[C@@H]1C[C@H](Sc2ccccc2)c2cc(Cl)ccc2N1
4. CC(CC(=O)O)C(C(=O)O)C(=O)O (stereo not given)
5. CCN(CC)C(=O)c1c(Cl)cc(N(CC)CC)oc1=O
6. CCOc1nnnc2[nH]cnc12
7. O=S1(=O)c2ccccc2N(c2ccccc2)c2nnnn21
8. CCOP(=O)(OCC)C(Nc1ccc(F)cc1)c1ccccc1 (stereo not given)

Resp:
1. 75.7 µM (inactive)
2. > 100 µM (inactive)
3. 28.2 µM (inactive)
4. > 100 µM (inactive)
5. > 100 µM (inactive)
6. > 100 µM (inactive)
7. 20.9 µM (inactive)
8. > 100 µM (inactive)

Quick batch: GI50 for everything below.
1. CCOc1ccc2[nH]c3c(C)c4ccncc4c(C)c3c2c1
2. COc1c(Br)cc(/C=C(\C#N)c2ccccn2)cc1Br
3. COc1ccc(/C=C/c2ccnc3ccccc23)cc1OC
4. CCCC(=O)OCC(O)CO (stereo not given)
5. CNC(=S)NC1CCCCC1NC(=S)NC (stereo not given)
6. CC(=O)Nc1ccccc1-c1nc2ccccc2nc1-c1ccccc1
7. Cc1coc2c1CC1OC1(C)CCC1OC1(C)C2 (stereo not given)

Resp:
["1.55 µM (inactive)", "> 100 µM (inactive)", "20 µM (inactive)", "> 5000 µM (inactive)", "> 100 µM (inactive)", "> 100 µM (inactive)", "> 100 µM (inactive)"]

----------
Please go through the items and note down their GI50.
# System: OVCAR-4
# Test Details: NCI tumour cell line growth inhibition, 48 h
The source made the active and inactive calls. Rule as the data show it: active = GI50 up to about 1.1 µM and inactive = higher.

Observe how each entry below is paired with its result.
- Compound: "COc1ccc(N2C(=O)CSC2c2cc3cc(Br)ccc3nc2Cl)cc1 (stereo not given)"
  Readout Name: "GI50"
  Measured Result: "> 50 µM (inactive)"
- Compound: "O=c1c2ccccc2sc2c(CO)ccc(NCCN3CCCCC3)c12"
  Readout Name: "GI50"
  Measured Result: "2.48 µM (inactive)"
- Compound: "COc1cc(-c2c(C#N)c(N)c(C#N)c3c2COc2ccccc2-3)cc(OC)c1OC"
  Readout Name: "GI50"
  Measured Result: "> 22.8 µM (inactive)"

Quick batch: GI50 for everything below.
1. CCN(CC)C(=O)c1c(Cl)cc(N(CC)CC)oc1=O
2. CC(CC(=O)N1C(=O)C(C)(C)[C@@H](O)[C@H]1CC(C)C(Cl)(Cl)Cl)C(Cl)(Cl)Cl (stereo not given in full)
3. CC(C)(C)OC(=O)N(O)[C@@H]1C=C[C@H](n2cnc3c(N)ncnc32)C1
4. c1ccc(CN2CCC3(CC2)SSC2(CCN(Cc4ccccc4)CC2)SS3)cc1
5. Cn1/c(=N\c2ccccc2[N+](=O)[O-])sc2ccccc21

Resp:
1: > 100 µM (inactive); 2: > 100 µM (inactive); 3: > 100 µM (inactive); 4: > 100 µM (inactive); 5: 16.1 µM (inactive)

Quick batch: GI50 for everything below.
1. Cc1ccc(O)c(Cc2nc3ccccc3nc2-c2cccc(Br)c2)c1
2. COc1cc2c(cc1OC)C1CN3C(=O)CCC3C(O)C1c1cc(OC)c(OC)cc1-2 (stereo not given)
3. COc1cc(Nc2nnc3n2S(=O)(=O)c2cc(C)c(Cl)cc2S3)cc(OC)c1
4. CC(CC(=O)O)C(C(=O)O)C(=O)O (stereo not given)
5. CCCCCCCCCCCCCCCCOCC(COP(=O)([O-])OCC[N+](C)(C)C)OCCCCCCCCCCCCCCCC (stereo not given)
6. CC1(C)C(=O)/C=C\C(=O)C(C)(C)C2=CC=C(O2)C(C)(C)C(=O)C(Br)C(Br)C(=O)C(C)(C)C2=CC=C1O2 (stereo not given)
7. C/C=C(/C)C(=O)O[C@H]1C[C@@H]2[C@@H](O)c3occ(C)c3C[C@]2(C)[C@@H](C)C1

Resp:
1: > 100 µM (inactive); 2: > 100 µM (inactive); 3: 4.3 µM (inactive); 4: > 100 µM (inactive); 5: > 100 µM (inactive); 6: > 74.5 µM (inactive); 7: 18 µM (inactive)

Quick batch: GI50 for everything below.
1. O=C(CSc1nc2ccc(I)cc2c(=O)n1Cc1ccccc1)NN1C(=O)c2ccccc2C1=O
2. COC1=CC(O)(CC(N)=O)c2ccccc2C1=O (stereo not given)

Resp:
12.2 µM (inactive)
> 100 µM (inactive)

----------
# System: EKVX
# Test Details: NCI tumour cell line growth inhibition, 48 h
The source made the active and inactive calls. No stated cut-off is given here; in the data, active = GI50 up to about 1.1 µM and inactive = higher. Positions of bridges follow the written chain, without caps; N, C: chain ends. Non-standard residues stand in square brackets, D forms with d. Residues, ends and D or L forms follow the SMILES beside them. *: point of attachment. Cbz = O=C(OCc1ccccc1)*; Aib = CC(C)(N)C(=O)O; OBn = c1ccc(CO*)cc1; βAla = NCCC(=O)O
Readout Name: GI50

Observe how each entry below is paired with its result.
- Compound: "CC1(C)NC(=O)C(NC(=O)C(CC(=O)OCc2ccccc2)NC(=O)OCc2ccccc2)CCCCNC(=O)CCNC1=O (stereo not given) (Cbz-D(OBn)K[Aib][βAla]; lactam 2-C; configuration not given here)"
  GI50: "> 100 µM (inactive)"
- Compound: "CC(=O)Nc1ccc2c(c1)/C(=N/c1ccc(C(=O)O)cc1)c1ccccc1-2"
  GI50: "45.9 µM (inactive)"
- Compound: "CC(=O)O[C@H]1CCC2[C@@H]3CCC4C(=O)c5oncc5C[C@]4(C)C3CC[C@@]21C (stereo not given in full)"
  GI50: "22.4 µM (inactive)"

Quick batch: GI50 for everything below.
1. COC1(OC)CC2C(=O)N(Cc3ccccc3)C1C=C2S(=O)(=O)c1ccccc1 (stereo not given)
2. CN1CC[C@]2(C)c3ccc(O)cc3CC3CCCC1C32C (stereo not given in full)
3. COc1cc(O)c2c(c1)C(=O)c1cc3c(c(O)c1C2=O)C(OC1OC(C)C(OC)C(O)C1OC)C(OC)C(C)(O)C3=O (stereo not given)
4. Cc1nc(C)c(N2CCN(S(N)(=O)=O)CC2)c(O)n1
5. C/C(C=O)=C1\C(O)C[C@]1(C)C1CC(C)(C)CC1O (stereo not given in full)

Resp:
15.6 µM (inactive)
> 100 µM (inactive)
3.37 µM (inactive)
> 100 µM (inactive)
> 100 µM (inactive)

Quick batch: GI50 for everything below.
1. N#C/C(=C\c1ccc2[nH]ccc2c1)C(=O)NCCCCNC(=O)/C(C#N)=C/c1ccc2[nH]ccc2c1
2. COc1ccc(NC(=O)/C(O)=C/C(=O)c2ccccc2)cc1
3. CCOc1ccc2[nH]c3c(C)c4ccncc4c(C)c3c2c1
4. CN(C)Cc1cc(C(=O)/C=C/c2ccccc2Cl)cc(CN(C)C)c1O

Resp:
1: > 31.6 µM (inactive); 2: > 10 µM (inactive); 3: 1.46 µM (inactive); 4: 14.7 µM (inactive)

Quick batch: GI50 for everything below.
1. CCO/N=C(/CC)c1ccc(Br)s1
2. COC1=C(OC)C23CCc4ccc(OC)c(O)c4C2(CCN3)CC1=O (stereo not given)
3. O=C1C(Cl)C(c2cccc(Br)c2)N1c1c(O)c(Cl)cc(Br)c1Cl (stereo not given)
4. C=CCNC(=O)ON1C(=O)CCC1=O
5. COc1ccccc1N1C(Cl)C(=O)C1c1c[nH]c2ccccc12 (stereo not given)

Resp:
1: > 100 µM (inactive); 2: > 100 µM (inactive); 3: 17 µM (inactive); 4: > 100 µM (inactive); 5: > 100 µM (inactive)

Quick batch: GI50 for everything below.
1. CCOc1cc(NC(C)=O)ccc1C(=O)NN1C(=O)/C(=C/c2ccc(Cl)cc2)N=C1c1ccccc1
2. CC(=O)CC(=O)Nc1ccc2ccccc2c1
3. Cc1ccc(Sc2cc([N+](=O)[O-])cc(Sc3ccc(C)cc3)c2Sc2ccc(C)cc2)cc1
4. Cc1cc(NC[C@H](O)[C@H](O)[C@H](O)CO)c(Sc2cc(=O)[nH]c(=O)[nH]2)cc1C
5. CCCCCCCCCCCC(=O)OCCOCCOCCOCCOCCOCc1ccc(OC)cc1

Resp:
26 µM (inactive)
> 100 µM (inactive)
> 100 µM (inactive)
> 62.5 µM (inactive)
> 100 µM (inactive)
